B1: OR4K15 (parent)
chain: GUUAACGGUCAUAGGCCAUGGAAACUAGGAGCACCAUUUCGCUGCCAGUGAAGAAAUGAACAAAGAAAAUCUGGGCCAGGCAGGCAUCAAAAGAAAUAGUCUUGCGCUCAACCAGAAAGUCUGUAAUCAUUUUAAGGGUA

Variants of: B1
Assay: self-cleavage, relative activity (ratio to wild type); higher = more cleavage; in vitro, sequencing; the parent is a self-cleaving ribozyme
Class (by self-cleavage) -- Low (below 0.5), Medium (0.5 to below 1), High (1 or more)

| Mutation List | Category Label |
| --- | --- |
| A36U A116G | Medium |
| G20A A66G | High |
| A5G A52G | High |
| A60G C128U | High |
| A30G U103A | Low |
| A110C A117G | Medium |
| C46G | High |
| U49G A116G | Medium |
| C10A U124C | Medium |
| U87C U132C | Medium |
| G79U A129G | Low |
| A30G G123U | Medium |
| C107A U133A | Low |
| A56G A96U | High |
| A22G A110G | Low |
| A18U A30U | High |
| G73A G79A | Low |
| A27G A30G | Medium |
| C45G U131C | Low |
